biological target: T1, plasma purified human AT-III (antithrombin III) (human, UniProt P01008 33-464); assay: K0.5: AT-III/UFH titrated on FIXa, residual activity on fluorogenic substrate
T1 construct: also called AT-III/UFH (in complex with unfractionated heparin)
Property: pIC50
In plain terms, pIC50 is the concentration in mol/L turned into minus its base-10 logarithm.

Example entries begin here.
[
  {
    "Binder": "FIXa-K247N/N249S/R318Y/R338E/R403E/E410N (enzyme, also called K82N/N84S/R150Y/R170E/R233E/E240N) chain 1: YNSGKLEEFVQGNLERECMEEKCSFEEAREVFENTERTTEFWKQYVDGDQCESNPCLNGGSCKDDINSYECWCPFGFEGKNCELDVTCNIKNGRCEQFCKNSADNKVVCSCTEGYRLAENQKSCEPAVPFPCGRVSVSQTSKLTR chain 2: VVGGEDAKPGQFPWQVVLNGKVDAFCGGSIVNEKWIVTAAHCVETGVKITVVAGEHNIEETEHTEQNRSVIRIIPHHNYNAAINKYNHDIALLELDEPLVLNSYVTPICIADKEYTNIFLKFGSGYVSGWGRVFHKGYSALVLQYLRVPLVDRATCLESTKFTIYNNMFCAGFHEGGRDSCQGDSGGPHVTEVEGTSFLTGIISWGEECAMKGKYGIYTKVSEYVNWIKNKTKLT",
    "Value reported": 5.09
  },
  {
    "Binder": "FIXa-R318Y/R338E/T412A (enzyme, also called R150Y/R170E/T242A) chain 1: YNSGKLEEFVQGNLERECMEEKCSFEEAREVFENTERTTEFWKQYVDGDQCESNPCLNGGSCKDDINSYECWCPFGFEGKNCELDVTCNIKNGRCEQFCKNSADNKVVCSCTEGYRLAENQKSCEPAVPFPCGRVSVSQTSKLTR chain 2: VVGGEDAKPGQFPWQVVLNGKVDAFCGGSIVNEKWIVTAAHCVETGVKITVVAGEHNIEETEHTEQKRNVIRIIPHHNYNAAINKYNHDIALLELDEPLVLNSYVTPICIADKEYTNIFLKFGSGYVSGWGRVFHKGYSALVLQYLRVPLVDRATCLESTKFTIYNNMFCAGFHEGGRDSCQGDSGGPHVTEVEGTSFLTGIISWGEECAMKGKYGIYTKVSRYVNWIKEKAKLT",
    "Value reported": 5.12
  },
  {
    "Binder": "FIXa-Y155F/N260S/R318Y/R338E/R403E/E410N (enzyme) chain 1: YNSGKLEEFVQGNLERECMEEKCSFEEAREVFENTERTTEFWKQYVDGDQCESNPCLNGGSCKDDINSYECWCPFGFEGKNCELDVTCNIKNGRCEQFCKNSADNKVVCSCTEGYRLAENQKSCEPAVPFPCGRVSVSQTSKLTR chain 2: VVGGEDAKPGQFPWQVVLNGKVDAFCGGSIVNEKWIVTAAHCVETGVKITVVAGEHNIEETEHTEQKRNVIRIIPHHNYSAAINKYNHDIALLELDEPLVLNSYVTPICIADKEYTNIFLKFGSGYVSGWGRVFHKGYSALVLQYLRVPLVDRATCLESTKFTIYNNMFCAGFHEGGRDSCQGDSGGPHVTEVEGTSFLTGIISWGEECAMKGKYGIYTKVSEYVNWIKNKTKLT",
    "Value reported": 5.01
  }
]

API: the following record is the query input.
Would you kindly share the measured pIC50 for FIXa-D104N/K106S/K228N/K247N/N249S (enzyme) chain 1: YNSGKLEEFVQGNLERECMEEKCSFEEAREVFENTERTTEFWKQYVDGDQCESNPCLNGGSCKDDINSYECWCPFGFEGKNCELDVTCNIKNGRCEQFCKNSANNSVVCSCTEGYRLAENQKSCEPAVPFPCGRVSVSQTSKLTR chain 2: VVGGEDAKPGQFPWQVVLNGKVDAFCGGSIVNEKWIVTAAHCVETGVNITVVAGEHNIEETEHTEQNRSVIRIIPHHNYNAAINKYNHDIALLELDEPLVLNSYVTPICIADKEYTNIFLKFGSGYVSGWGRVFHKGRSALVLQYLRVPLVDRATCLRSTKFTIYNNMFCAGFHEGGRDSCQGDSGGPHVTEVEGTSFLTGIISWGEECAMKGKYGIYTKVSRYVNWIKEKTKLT ?
7.39
